Where do these numbers come from? They come from patent US11485740B2.

Below, each entry is listed with its recorded pIC50.
# target: human TRPC6 (Homo sapiens)
# Construct: expressed in transfected cells
# Sequence (Q9Y210 1-931): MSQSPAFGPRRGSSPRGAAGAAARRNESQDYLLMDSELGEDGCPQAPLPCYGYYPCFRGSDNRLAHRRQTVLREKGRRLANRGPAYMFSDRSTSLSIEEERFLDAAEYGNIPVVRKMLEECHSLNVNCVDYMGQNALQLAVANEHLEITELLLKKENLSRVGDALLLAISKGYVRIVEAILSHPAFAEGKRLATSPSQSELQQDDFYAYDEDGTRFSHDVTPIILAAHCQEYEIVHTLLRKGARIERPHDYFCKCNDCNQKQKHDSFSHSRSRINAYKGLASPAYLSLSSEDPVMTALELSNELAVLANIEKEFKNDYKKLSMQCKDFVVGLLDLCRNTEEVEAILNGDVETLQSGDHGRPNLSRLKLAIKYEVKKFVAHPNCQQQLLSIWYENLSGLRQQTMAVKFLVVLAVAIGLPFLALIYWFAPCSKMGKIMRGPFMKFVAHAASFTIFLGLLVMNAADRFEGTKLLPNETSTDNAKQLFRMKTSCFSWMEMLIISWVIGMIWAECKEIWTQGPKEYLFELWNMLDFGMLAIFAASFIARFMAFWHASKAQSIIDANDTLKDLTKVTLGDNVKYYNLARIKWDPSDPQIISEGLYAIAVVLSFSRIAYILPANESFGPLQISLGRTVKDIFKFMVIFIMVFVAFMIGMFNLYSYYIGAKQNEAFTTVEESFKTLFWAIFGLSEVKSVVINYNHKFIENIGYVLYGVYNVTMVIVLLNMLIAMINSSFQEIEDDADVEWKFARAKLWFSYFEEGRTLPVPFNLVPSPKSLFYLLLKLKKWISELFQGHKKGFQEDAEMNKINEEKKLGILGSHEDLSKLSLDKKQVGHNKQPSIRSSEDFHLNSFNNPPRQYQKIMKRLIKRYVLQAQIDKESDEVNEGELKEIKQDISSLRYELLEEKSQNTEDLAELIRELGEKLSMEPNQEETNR
# measurementNotes: High throughput screening assay: Fluo4/AM calcium fluorescence in HEK293/TREx cells expressing human TRPC6, agonist GSK1702934A (single concentration 10 μM and IC50 curves)
# Type: cell-based
# measurementParameters: antagonist effect against human TRPC6, 7 concentrations 20 μM to 0.027 μM, triplicate
Worth noting: pIC50 values are minus log10 of concentrations stated in mol/L.

structureNotation	number
COc1cc(C(=O)N2CCN(c3cnc(N)cc3OC)C[C@@H]2[C@@H](C)O)ncc1-c1ccc(C(F)(F)F)cc1	6.36
COc1cc(C(=O)N2CCC(c3nnc(N)cc3OC)CC2)ncc1-c1ccccc1	6.27
COc1cc(C(=O)N2CCC(c3ccc(N)nn3)CC2)ccc1-c1ccccc1	6.03
COc1cc(C(=O)N2CCC(c3ccc(N)nn3)CC2)ncc1-c1ccccc1	6.96
COc1cccc(-c2ccc(C(=O)N3CCC(c4ccc(N)nn4)CC3)cc2)c1	5.27

INPUT: Please report pIC50 for the following molecule: COc1cc(-c2cnc(C(=O)N3CCC(c4ccc(N)nn4)CC3)cc2OC)ccc1F
OUTPUT: 5.48

INPUT: Please report pIC50 for the following molecule: COc1cc(C(=O)N2CCC(c3ccc(N)nn3)CC2)ccc1-c1ccnc(C(F)(F)F)c1
OUTPUT: 5.39

INPUT: Please report pIC50 for the following molecule: Nc1ccc(C2CCN(C(=O)c3ccc4c(c3)oc3ccccc34)CC2)nn1
OUTPUT: 5.70

---

# target: human TRPC6 (Homo sapiens, UniProt Q9Y210)
# measurementNotes: High throughput screening assay: Fluo4/AM calcium fluorescence in HEK293/TREx cells expressing human TRPC6, agonist GSK1702934A (single concentration 10 μM and IC50 curves)
# measurementParameters: antagonist effect against human TRPC6, 7 concentrations 20 μM to 0.027 μM, triplicate
Below, each entry is listed with its recorded log10(IC50).
Use the decimal logarithm of IC50 (nM).

structureNotation	target	log10(IC50)
CCOc1ccc(-c2cnc(C(=O)N3CCC(c4ccc(N)nn4)CC3)cc2OC)cc1	human TRPC6 (Homo sapiens, UniProt Q9Y210)	2.51
COc1cc(C(=O)N2CCC(c3ccc(N)nn3)CC2)ccc1-c1ccc(OCC2(CF)CC2)nc1	human TRPC6 (Homo sapiens, UniProt Q9Y210)	2.11
COc1cc(C(=O)N2CCC(c3ccc(N)nn3)CC2)ccc1-c1ccc(OCC2CC2)nc1	human TRPC6 (Homo sapiens, UniProt Q9Y210)	2.53
CCc1ccc(-c2cnc(C(=O)N3CCC(c4ccc(N)nn4)CC3)cc2OC)cn1	human TRPC6 (Homo sapiens, UniProt Q9Y210)	3.23
COc1cc(C(=O)N2CCC(c3ccc(N)nn3)CC2)ncc1-c1ccc(C(F)F)cc1	human TRPC6 (Homo sapiens, UniProt Q9Y210)	2.26
COc1cc(C(=O)N2CCC(c3nnc(N)cc3OC)CC2)ncc1-c1ccc(C(F)(F)F)cc1	human TRPC6 (Homo sapiens, UniProt Q9Y210)	2.54
COc1cc(C(=O)N2C[C@@H]3C[C@H]2CN3c2ccc(N)nn2)ncc1-c1ccc(C(F)(F)F)cc1	human TRPC6 (Homo sapiens, UniProt Q9Y210)	2.28

Please turn your attention to the following entry.
INPUT: Please report log10(IC50) for the following molecule: COc1cc(C(=O)N2CCC(c3ccc(N)nn3)CC2)ncc1-c1ccc(C)c(F)c1
OUTPUT: 2.00

---

# target: human TRPC6 (Homo sapiens)
# measurementNotes: High throughput screening assay: Fluo4/AM calcium fluorescence in HEK293/TREx cells expressing human TRPC6, agonist GSK1702934A (single concentration 10 μM and IC50 curves)
# measurementParameters: antagonist effect against human TRPC6, 7 concentrations 20 μM to 0.027 μM, triplicate
pIC50: −log10 of the molar value.
Classification field: Condition met = pIC50 at or over 6; Condition not met = pIC50 under 6.

structureNotation	assignedCategory
Cc1cc(C(=O)N2CCC(c3ccc(N)nn3)CC2)ccc1-c1ccc(C(F)(F)F)cc1	Condition not met

INPUT: Threshold query (pIC50 >= 6) on Nc1ccc(N2CCN(C(=O)c3ccc(-c4ccc(C(F)(F)F)cc4)cc3)CC2)cn1
OUTPUT: Condition not met

INPUT: Threshold query (pIC50 >= 6) on COc1cc(C(=O)N2CCC(c3ccc(N)nn3)CC2)ncc1-c1ccc(OC(C)C)c(F)c1
OUTPUT: Condition met

---

# target: human TRPC6 (Homo sapiens)
# measurementNotes: High throughput screening assay: Fluo4/AM calcium fluorescence in HEK293/TREx cells expressing human TRPC6, agonist GSK1702934A (single concentration 10 μM and IC50 curves)
# measurementParameters: antagonist effect against human TRPC6, 7 concentrations 20 μM to 0.027 μM, triplicate
endpointLabel: IC50 (nM)
Write down the numeric answer in nM and omit the unit.

Below: 3 compounds and their reported IC50.
compound	target	IC50 [nM]
CC(C)Cc1ccc(-c2ccc(C(=O)N3CCC(c4ccc(N)nn4)CC3)cc2)cc1 [Compound 83]	human TRPC6 (Homo sapiens)	8700
COc1cc(C(=O)N2CCC(c3ccc(N)nn3)CC2)cnc1-c1ccc(C(F)(F)F)cc1 [Compound 65]	human TRPC6 (Homo sapiens)	860
COc1cc(C(=O)N2CCN(c3cnc(N)cc3OC)CC2CC(F)F)ncc1-c1ccc(C(F)(F)F)cc1 (single isomer, unassigned) [Compound 109]	human TRPC6 (Homo sapiens)	330

INPUT: Please report IC50 for the following compound: COc1cc(C(=O)N2CCC(c3ccc(N)nn3)CC2)ccc1-c1ccc(O[C@H](C)C2CC2)nc1 [Compound 81]
OUTPUT: 220

INPUT: Please report IC50 for the following compound: COc1cc(C(=O)N2CCC(c3ccc(N)nn3)CC2)ncc1-c1ccc(OC(C)C)cc1 [Compound 30]
OUTPUT: 340

INPUT: Please report IC50 for the following compound: COc1cc(C(=O)N2CCC(c3ccc(N)nn3)CC2)ccc1-c1ccc(OCC(F)(F)F)cc1 [Compound 58]
OUTPUT: 81

INPUT: Please report IC50 for the following compound: COc1cc(C(=O)N2CCC(c3ccc(N)nn3)CC2)ncc1-c1ccc(OCC2CC2)nc1 [Compound 50]
OUTPUT: 190

INPUT: Please report IC50 for the following compound: COc1cc(C(=O)N2CCC(c3ccc(N)nn3)CC2)ncc1-c1cccc(OCC2CC2)c1 [Compound 21]
OUTPUT: 160

INPUT: Please report IC50 for the following compound: COc1cc(C(=O)N2CCC(c3ccc(N)nc3)CC2)ncc1-c1ccc(C(F)(F)F)nc1 [Compound 97]
OUTPUT: 69

INPUT: Please report IC50 for the following compound: COc1cc(C(=O)N2CCC(c3ccc(N)nn3)CC2)ncc1-c1ccc(OCC2CC2(F)F)nc1 (stereo not shown) [Compound 111]
OUTPUT: 440

INPUT: Please report IC50 for the following compound: COc1cc(C(=O)N2CCC(c3ccc(N)nn3)CC2)ccc1-c1ccc(O[C@@H](C)C2CC2)nc1 [Compound 78]
OUTPUT: 460

INPUT: Please report IC50 for the following compound: COc1cc(C(=O)N2CCC(c3ccc(N)nn3)CC2)ncc1-c1ccc(OCC2CC2)c(Cl)c1 [Compound 18]
OUTPUT: 2700

INPUT: Please report IC50 for the following compound: COc1cc(C(=O)N2CCC(c3ccc(N)nn3)CC2)ncc1-c1ccc(OC(C)C)c(Cl)c1 [Compound 19]
OUTPUT: 610

INPUT: Please report IC50 for the following compound: COc1cc(C(=O)N2CCC(c3ccc(N)nn3)CC2)ncc1-c1ccc(F)c(OCC(F)(F)F)c1 [Compound 15]
OUTPUT: 1700

INPUT: Please report IC50 for the following compound: COc1cc(C(=O)N2CCC(c3ccc(N)nn3)CC2)ccc1-c1ccc(OC2CC2)nc1 [Compound 73]
OUTPUT: 510

INPUT: Please report IC50 for the following compound: Nc1ccc(C2CCN(C(=O)c3ccc(-c4cccc(F)c4)cc3)CC2)nn1 [Compound 8]
OUTPUT: 6700
